Values were extracted from the supplement of paper PMC8728848.

target: Neu5Ac(a2-3)Gal(b1-4)GlcNAc(b1-2)Man(a1-3)[Neu5Ac(a2-6)Gal(b1-4)GlcNAc(b1-2)Man(a1-6)]Man(b1-4)GlcNAc(b1-4)GlcNAc; experiment: glycan array binding signal (z-score within array); higher = stronger binding; conditions: glycan notation: IUPAC condensed, linker removed
Shown is part of a subset that was picked to be rich in the strongest signals.
quantity: glycan array binding signal (z-score)

- Codakine (Codakia orbicularis), Q3KVL7_9BIVA (protein) MKILVAVFLVLVVVGTAAAGCPDGWTQFLDLCYIYQSAKASWASAQSSCQALGGILAEPDTACENEVLIHMCRENGDAGSFGPWLGGQKVGGAWQWSSSGAAFDYLRWGPNEPNNSGGNEDCLHYNWLSWNDLRCHYQASYLCQRAAE: 4.57
- LysMD3 (Homo sapiens), Q7Z3D4 (protein) MAGRHQNRSFPLPGVQSSGQVHAFGNCSDSDILEEDAEVYELRSRGKEKVRRSTSRDRLDDIIVLTKDIQEGDTLNAIALQYCCTVADIKRVNNLISDQDFFALRSIKIPVKKFSSLTETLCPPKGRQTSRHSSVQYSSEQQEILPANDSLAYSDSAGSFLKEVDRDIEQIVKCTDNKRENLNEVVSALTAQQMRFEPDNKNTQRKDPYYGADWGIG: 0.582
- OGAN (protein) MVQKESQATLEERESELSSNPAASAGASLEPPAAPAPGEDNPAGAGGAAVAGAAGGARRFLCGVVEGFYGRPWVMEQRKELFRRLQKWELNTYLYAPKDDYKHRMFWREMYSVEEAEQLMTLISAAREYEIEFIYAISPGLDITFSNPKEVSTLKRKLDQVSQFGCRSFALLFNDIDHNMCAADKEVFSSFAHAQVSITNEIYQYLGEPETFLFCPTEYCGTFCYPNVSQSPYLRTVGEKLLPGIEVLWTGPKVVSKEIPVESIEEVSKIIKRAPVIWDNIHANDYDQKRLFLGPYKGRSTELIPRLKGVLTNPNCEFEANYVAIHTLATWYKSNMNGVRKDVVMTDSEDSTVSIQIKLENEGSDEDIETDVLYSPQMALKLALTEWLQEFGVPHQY: -0.048
- UEA-I (Ulex europaeus), P22972 (protein) SDDLSFKFKNFSQNGKDLSFQGDASVIETGVLQLNKVGNNLPDETGGIARYIAPIHIWNCNTGEVASFITSFSFFMETSANPKAATDGLTFFLAPPDSPLRRAGGYFGLFEDTKDNDSSYQTVAVEFDTIGSPVNFDDPGFPHIGIDVNRVKSINAERWNKRYGLNNVANVEIIYEASSKTLTASLTYPSDQTSISVTSIVDLKEILPEWVSVGFSGGTYIGRQATHEVLNWYFTSNLINTNS: -0.209
- CD72 ectodomain (Homo sapiens), P21854 (protein) RYLQVSQQLQQTNRVLEVTNSSLRQQLRLKITQLGQSAEDLQGSRRELAQSQEALQVEQRAHQAAEGQLQACQADRQKTKETLQSEEQQRRALEQKLSNMENRLKPFFTCGSADTCCPSGWIMHQKSCFYISLTSKNWQESQKQCETLSSKLATFSEIYPQSHSYYFLNSLLPNGGSGNSYWTGLSSNKDWKLTDDTQRTRTYAQSSKCNKVHKTWSWWTLESESCRSSLPYICEMTAFRFPD: 0.127
